# ASSAY_OVERVIEW: Binding potency against Platelet activating factor (PAF) receptor using [3H]C18-PAF as radioligand on rabbit platelet membranes
pKi: −log10 of the molar value.
MEASURE: pKi

1) Cc1cccc2c1c(C(=O)c1ccc(Cn3c(C)nc4cnccc43)cc1)cn2C(=O)N(C)C | 9.09
2) COC(=O)c1cccc2c1c(C(=O)c1ccc(Cn3c(C)nc4ncccc43)cc1)cn2C(=O)N(C)C | 8.54
3) C#Cc1cccc2c1c(C(=O)c1ccc(Cn3c(C)nc4cnccc43)c(F)c1)cn2C(=O)NC | 9.20

* * *

# ASSAY_OVERVIEW: Binding potency against Platelet activating factor (PAF) receptor using [3H]C18-PAF as radioligand on rabbit platelet membranes
pKi: −log10 of the molar value.
MEASURE: pKi

1) COC(=O)c1cccc2c1c(C(=O)c1ccc(Cn3c(C)nc4cccnc43)cc1)cn2C(=O)N(C)C | 8.00
2) COC(=O)c1cccc2c1c(S(=O)(=O)c1ccc(Cn3c(C)nc4cnccc43)cc1)cn2C(=O)N(C)C | 7.89
3) COC(=O)c1cccc2c1c(C(=O)c1ccc(Cn3c(C)nc4ccccc43)cc1)cn2C(=O)N1CCCC1 | 8.77
4) COC(=O)c1cccc2c1c(C(=O)C1CCC(Cn3c(C)nc4cnccc43)CC1)cn2C(=O)N(C)C (configuration not stated) | 8.62
5) COC(=O)c1cccc2c1c(C(=O)c1ccc(Cn3c(C)nc4c(Cl)nccc43)cc1)cn2C(=O)N(C)C | 8.74
6) COC(=O)c1cccc2c1c(C(=O)c1ccc(Cn3c(C)nc4cnccc43)cc1)cn2C(=O)N1CCCC1 | 7.96
7) COC(=O)c1cccc2c1c(C(=O)CCCCCn1c(C)nc3cnccc31)cn2C(=O)N(C)C | 8.21
8) COC(=O)c1cccc2c1c(C(=O)c1ccc(Cn3c(C)nc4cnccc43)cc1)cn2S(=O)(=O)C(C)C | 9.72
9) COC(=O)c1cc(-c2ccc(F)cc2)cc2c1c(C(=O)c1ccc(Cn3c(C)nc4cnccc43)cc1)cn2C(=O)N(C)C | 9.82
10) Cc1nc2cnccc2n1CCCN(C)CC(=O)c1cn(C(=O)N(C)C)c2cc(-c3ccc(F)cc3)ccc12 | 6.85
11) Cc1nc2cnccc2n1Cc1ccc(C(=O)c2cn(C(=O)N(C)C)c3cccc(F)c23)cc1 | 8.29
12) Cc1nc2cnccc2n1Cc1ccc(S(=O)(=O)c2cn(C(=O)N(C)C)c3ccccc23)cc1 | 7.92
13) COC(=O)c1cccc2c1c(C(=O)c1ccc(Cn3c(C)nc4c[n+]([O-])ccc43)cc1)cn2C(=O)N(C)C | 7.64
14) Cc1nc2cnccc2n1CC1CCN(C(=O)c2cn(C(=O)N(C)C)c3cc(-c4ccc(F)cc4)ccc23)CC1 | 8.60
15) COC(=O)c1ccc2c(c1)c(C(=O)c1ccc(Cn3c(C)nc4cnccc43)cc1)cn2C(=O)N(C)C | 6.96
16) Cc1nc2cnccc2n1CCCCCC(=O)c1cn(C(=O)N(C)C)c2cccc(-c3ccc(F)cc3)c12 | 8.49

* * *

# ASSAY_OVERVIEW: Binding potency against Platelet activating factor (PAF) receptor using [3H]C18-PAF as radioligand on rabbit platelet membranes
MEASURE: log10 Ki (log10 of the value in nM)

1) COc1cccc2c1c(C(=O)c1ccc(Cn3c(C)nc4cnccc43)cc1)cn2C(=O)N(C)C | 0.30
2) COC(=O)c1cccc2c1c(C(=O)c1ccc(Cn3c(C)nc4cnccc43)cc1)cn2C(N)=O | 0.18
3) Cc1nc2cnccc2n1Cc1ccc(C(=O)c2cn(C(=O)N(C)C)c3cccc(O)c23)cc1 | 0.79
4) COC(=O)c1cc(Br)cc2c1c(C(=O)c1ccc(Cn3c(C)nc4cnccc43)cc1)cn2C(=O)N(C)C | 0.15
5) CNC(=O)n1cc(C(=O)c2ccc(Cn3c(C)nc4cnccc43)cc2)c2c(C(=O)OC)cccc21 | 0.18
6) COC(=O)c1cccc2c1c(C(=O)c1ccc(Cn3c(C)nc4cnccc43)cc1)cn2S(=O)(=O)N(C)C | 0.63
7) Cc1nc2ccncc2n1Cc1ccc(C(=O)c2cn(C(=O)N(C)C)c3cc(-c4ccc(F)cc4)ccc23)cc1 | 2.79
8) CCOC(=O)c1cccc2c1c(C(=O)c1ccc(Cn3c(C)nc4cnccc43)cc1)cn2C(=O)N(C)C | 0.72
9) COC(=O)c1cccc2c1c(C(=O)c1ccc(Cn3c(C)nc4cnccc43)cc1)cn2CC(=O)C(C)(C)C | -0.17
10) C#Cc1cccc2c1c(C(O)c1ccc(Cn3c(C)nc4cnccc43)c(F)c1)cn2C(=O)N(C)C (stereo not given) | 0.18
11) Cc1nc2cnccc2n1-c1ccc(C(=O)c2cn(C(=O)N(C)C)c3cc(-c4ccc(F)cc4)ccc23)cc1 | 2.41
12) COC(=O)c1cccc2c1c(C(=O)c1ccc(Cn3c(C)nc4cnccc43)c(F)c1)cn2C(=O)N(C)C | 0.70
13) Cc1nc2cnccc2n1Cc1ccc(C(=O)c2c[nH]c3cc(-c4ccc(F)cc4)ccc23)cc1 | 1.88
14) COC(=O)c1cccc2c1c(C(=O)c1ccc(Cn3c(C)nc4c(C)nc(C)cc43)cc1)cn2C(=O)N(C)C | 2.08
15) Cc1nc2cnccc2n1Cc1ccc(C(=O)c2cn(C(=O)N(C)C)c3cccc(C(=O)N(C)C)c23)cc1 | 1.04
16) Cc1nc2cnccc2n1Cc1csc(C(=O)c2cn(C(=O)N(C)C)c3cc(-c4ccc(F)cc4)ccc23)n1 | 1.59
17) Cc1nc2cnccc2n1Cc1ccc(C(=O)c2cn(C(=O)N(C)C)c3cccc(Cl)c23)cc1 | 0.73
18) Cc1nc2cnccc2n1Cc1ccc(C(=O)c2cn(C(=O)N(C)C)c3cccc(NC(=O)c4ccccc4)c23)cc1 | 0.30
19) Cc1nc2cnccc2n1Cc1ccc(C(=O)c2cn(C(=O)N(C)C)c3ccc(-c4ccc(F)cc4)cc23)cc1 | 2.28
20) Cc1cccc2c1c(C(=O)CN1CCC(n3c(C)nc4cnccc43)CC1)cn2C(=O)N(C)C | 0.30
21) Cc1nc2cnccc2n1Cc1ccc(C(=O)c2cn(C(=O)N(C)C)c3cccc(C(=O)OC(C)C)c23)cc1 | 0.67
22) Cc1nc2cnccc2n1Cc1ccc(C(=O)c2cn(C(=O)N(C)C)c3cccc(Br)c23)cc1 | 1.04
23) Cc1nc2ncccc2n1Cc1ccc(C(=O)c2cn(C(=O)N(C)C)c3cccc(Cl)c23)cc1 | -0.05
24) C#Cc1cccc2[nH]cc(C(=O)c3ccc(Cn4c(C)nc5cnccc54)c(F)c3)c12 | 0.34
25) Cc1nc2cnccc2n1Cc1ccc(C(=O)c2cn(C(=O)N(C)C)c3cccc(OC(=O)N(C)C)c23)cc1 | 0.56
26) COC(=O)c1cccc2c1c(C(=O)c1ccc(Cn3c(C)nc4cnccc43)cc1)cn2CC(=O)N(C)C | 0.64
27) COC(=O)c1cccc2c1c(C(=O)CCCCn1c(C)nc3cnccc31)cn2C(=O)N(C)C | 1.04
28) COC(=O)c1cccc2c1c(C(=O)CCCCCCn1c(C)nc3cnccc31)cn2C(=O)N(C)C | 0.97
29) Cc1nc2cnccc2n1Cc1ccc(C(=O)c2c[nH]c3c(OCc4ccccc4)cccc23)cc1 | 1.08
30) Cc1[nH]c2ccccc2c1C(=O)c1ccc(Cn2c(C)nc3cnccc32)cc1 | 1.68
31) Cc1nc2cnccc2n1Cc1ccc(C(=O)c2cn(C(=O)N(C)C)c3ccccc23)cc1 | 0.83
32) COC(=O)c1[nH]c2cccc(OC)c2c1C(=O)c1ccc(Cn2c(C)nc3cnccc32)cc1 | -0.29
33) C#Cc1cccc2c1c(C(=O)c1ccc(Cn3c(C)nc4cnccc43)cc1)cn2C(=O)N(C)C | 0.11
34) Cc1nc2cnccc2n1Cc1ccc(C(=O)c2cn(C(=O)N(C)C)c3cccc(C(=O)O)c23)cc1 | 1.15

* * *

# ASSAY_OVERVIEW: The compound was evaluated for its binding affinity against PAF receptor in rabbit platelet
MEASURE: Ki (nM)

1. CC(=O)OC[n+]1cccc([C@H]2SCc3c(C(=O)c4cn(C(=O)N(C)C)c5cc(-c6ccc(F)cc6)ccc45)ccn32)c1 | 3.8

* * *

# ASSAY_OVERVIEW: Binding potency against Platelet activating factor (PAF) receptor using [3H]C18-PAF as radioligand on rabbit platelet membranes
pKi: −log10 of the molar value.
Lab note: compare pKi against 8. Equal or greater, write Y. Smaller, write N.

1. Cc1nc2cnccc2n1Cc1ccc(C(=O)c2cn(C(=O)N(C)C)c3cccc(OC(=O)N(C)C)c23)cc1F | N
2. COC(=O)c1cccc2c1c(C(=O)c1ccc(Cn3c(C)nc4ccccc43)cc1)cn2C(=O)N(C)C | Y
3. CCc1cccc2c1c(C(=O)c1ccc(Cn3c(C)nc4cnccc43)cc1)cn2C(=O)N(C)C | Y
4. Cc1nc2cnccc2n1Cc1cccc(C(=O)c2cn(C(=O)N(C)C)c3cc(-c4ccc(F)cc4)ccc23)c1 | N
5. COC(=O)c1cccc2c1c(C(=O)c1ccc(Cn3c(C)nc4c(=O)[nH]ccc43)cc1)cn2C(=O)N(C)C | Y
6. Cc1nc2cnccc2n1C1CCN(C(=O)c2cn(C(=O)N(C)C)c3cc(-c4ccc(F)cc4)ccc23)CC1 | Y
7. Cc1nc2cnccc2n1CCN1CCN(S(=O)(=O)c2cn(C(=O)N(C)C)c3cc(-c4ccc(F)cc4)ccc23)CC1 | N

Ref: BindingDB's records for doi:10.1021/jm970389+
